Below are IC50 values for panel of kinases (Homo sapiens, UniProt P51813) collected from several publications.

MOLECULE	TGT	RESULT QUALIFIER	IC50 / nM
C=CC(=O)Nc1cccc(Nc2nc(Nc3ccc4c(c3)OCCOCCOCCO4)ncc2F)c1	panel of kinases (Homo sapiens, UniProt P51813)	<	100
CN(C)C(=O)N[C@@H]1CCN(c2n[nH]c3nccc(-c4ccc(CNC(=O)c5noc(C(C)(C)C)n5)c(F)c4)c23)C1	panel of kinases (Homo sapiens, UniProt P51813)	=	1280
CC(C)(C)c1nc(C(=O)NCc2ccc(-c3ccnc4[nH]nc(N[C@H]5CC[C@H](O)CC5)c34)cc2F)no1	panel of kinases (Homo sapiens, UniProt P51813)	=	4370
CC#CC(=O)N(C)[C@@H](C)c1nc(-c2ccc(C(=O)Nc3ccccn3)cc2)c2c(N)nccn12	panel of kinases (Homo sapiens, UniProt P51813)	=	7.5
CN(C)C/C=C/C(=O)Nc1cccc(-n2nc(-c3ccc(Cl)cc3)c3c(N)ncnc32)c1	panel of kinases (Homo sapiens, UniProt P51813)	<	100
C[C@H]1CC[C@@H](Nc2n[nH]c3nccc(-c4ccc(CNC(=O)c5nc6c(s5)CCCC6)c(F)c4)c23)CN1C(=O)N(C)C	panel of kinases (Homo sapiens, UniProt P51813)	=	3000
C=CC(=O)N1CC[C@@H](Nc2n[nH]c3nccc(-c4ccc(CNC(=O)c5cn6c(C)cccc6n5)c(F)c4)c23)C1	panel of kinases (Homo sapiens, UniProt P51813)	=	162
CN(C)C(=O)N1CCC[C@@H](Nc2n[nH]c3nccc(-c4ccc(CNC(=O)c5noc(C(C)(C)C)n5)c(F)c4)c23)C1	panel of kinases (Homo sapiens, UniProt P51813)	=	3790
CC(C)(C)c1noc(C(=O)NCc2ccc(-c3ccnc4[nH]nc(OC5CCNC5)c34)cc2F)n1 (centres unmarked)	panel of kinases (Homo sapiens, UniProt P51813)	=	2970
CC(C)(C)c1noc(C(=O)NCc2ccc(-c3ccnc4[nH]nc(N5CCC(N)CC5)c34)cc2F)n1	panel of kinases (Homo sapiens, UniProt P51813)	=	1180
CN(C)C(=O)N1CC[C@@H](Nc2n[nH]c3nccc(-c4ccc(CNC(=O)c5nc(C(C)(C)C)no5)c(F)c4)c23)C1	panel of kinases (Homo sapiens, UniProt P51813)	=	5220
CC(C)c1noc(C(=O)N[C@H](C)c2ccc(-c3ccnc4[nH]nc(N5CCOCC5)c34)cc2)n1	panel of kinases (Homo sapiens, UniProt P51813)	=	502
COC/C=C/C(=O)N[C@@H](C)c1nc(-c2ccc(C(=O)Nc3ccc(C)cn3)cc2)c2c(N)nccn12	panel of kinases (Homo sapiens, UniProt P51813)	=	2.9
C=CC(=O)N1CCC(c2n[nH]c3nccc(-c4ccc(CNC(=O)c5noc(C(C)(C)C)n5)c(F)c4)c23)C1 (centres unmarked)	panel of kinases (Homo sapiens, UniProt P51813)	=	8.95

* * *

Field: IC50. System: panel of kinases (Homo sapiens, UniProt P51813). Provenance: assorted publications.
Sequence (P51813 whole entry): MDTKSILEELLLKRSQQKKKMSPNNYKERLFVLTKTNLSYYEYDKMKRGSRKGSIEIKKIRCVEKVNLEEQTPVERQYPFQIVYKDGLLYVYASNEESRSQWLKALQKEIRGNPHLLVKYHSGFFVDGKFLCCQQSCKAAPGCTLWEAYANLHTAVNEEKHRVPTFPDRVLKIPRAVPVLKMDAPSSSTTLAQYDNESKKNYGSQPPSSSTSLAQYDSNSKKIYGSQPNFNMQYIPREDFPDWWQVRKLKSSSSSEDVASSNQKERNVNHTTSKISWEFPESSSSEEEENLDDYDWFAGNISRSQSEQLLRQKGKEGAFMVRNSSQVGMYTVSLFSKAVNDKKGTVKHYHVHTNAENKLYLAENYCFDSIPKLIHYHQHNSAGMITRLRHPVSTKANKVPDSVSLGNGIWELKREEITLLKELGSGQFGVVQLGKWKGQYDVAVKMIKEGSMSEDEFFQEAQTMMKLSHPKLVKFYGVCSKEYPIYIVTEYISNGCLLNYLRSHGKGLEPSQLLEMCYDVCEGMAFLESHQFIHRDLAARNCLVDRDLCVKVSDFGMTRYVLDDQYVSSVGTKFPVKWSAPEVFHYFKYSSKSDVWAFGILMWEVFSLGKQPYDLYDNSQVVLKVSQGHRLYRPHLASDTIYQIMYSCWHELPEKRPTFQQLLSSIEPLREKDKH
Label key: Condition met means IC50 under 500 nM; Condition not met means IC50 of 500 nM or more.

STRUCTURE SMILES	ANSWER LABEL
C=CC(=O)NC1CCN(c2n[nH]c3nccc(-c4ccc([C@@H](C)NC(=O)c5cc(C(C)(C)O)on5)cc4)c23)CC1	Condition not met
CC#CC(=O)N[C@@H](C)c1nc(-c2ccc(C(=O)Nc3ccccn3)c(OC)c2)c2c(N)nccn12	Condition met
CC#CC(=O)N1CC[C@@H](Nc2n[nH]c3nccc(-c4ccc(CNC(=O)c5noc(C(C)(C)C)n5)c(F)c4)c23)C1	Condition met
C[C@H]1CC[C@@H](Nc2n[nH]c3nccc(-c4ccc(CNC(=O)c5nc(C(C)(C)C)no5)c(F)c4)c23)CN1C(=O)CO	Condition not met
CN(C)C/C=C/C(=O)N[C@@H]1CCN(c2n[nH]c3nccc(-c4ccc(CNC(=O)c5cc(C(C)(C)C)on5)c(F)c4)c23)C1	Condition not met
COc1cc(-c2nn(-c3cccc(N(C)C(=O)/C=C/CN(C)C4CC4)c3)c3ncnc(N)c23)ccc1C	Condition met
C=CC(=O)Nc1cccc(Nc2nc(Nc3ccccc3)ncc2C)c1	Condition met
C[C@H]1CC[C@@H](Nc2n[nH]c3nccc(-c4ccc(CNC(=O)c5cc(C(C)(C)C)on5)c(F)c4)c23)CN1	Condition not met
C[C@H]1CC[C@@H](Nc2n[nH]c3nccc(-c4ccc(CNC(=O)c5ccc(C(C)(C)O)cc5F)c(F)c4)c23)CN1C(=O)N(C)C	Condition not met
CN(C)C/C=C/C(=O)N(C)c1ccc(-n2nc(-c3ccc(Cl)cc3)c3c(N)ncnc32)cc1	Condition met
C=CC(=O)N[C@@H]1CCN(c2n[nH]c3nccc(-c4ccc(CNC(=O)c5cc(C(C)(C)C)on5)c(F)c4)c23)C1	Condition met
CC#CC(=O)N1CCC[C@H]1c1nc(-c2ccc(C(=O)Nc3nccs3)c(OC)c2)c2c(N)nccn12	Condition met
C=CC(=O)N1CC[C@@H](Nc2n[nH]c3nccc(-c4ccc(CNC(=O)c5ccc(C)cc5)c(F)c4)c23)C1	Condition met
CC#CC(=O)NCCCC(=O)c1nc(-c2ccc(C(=O)Nc3ccccn3)cc2)c2c(N)nccn12	Condition met
CN(C)C(=O)N1CC[C@@H](Nc2n[nH]c3nccc(-c4ccc(CNC(=O)c5cc(Cl)on5)c(F)c4)c23)C1	Condition not met
Cc1ccc(-c2nn([C@@H]3CCN(C(=O)/C=C/CN(C)C4CCC4)C3)c3ncnc(N)c23)cc1	Condition met
CC(=O)N[C@@H]1CCN(c2n[nH]c3nccc(-c4ccc(CNC(=O)c5noc(C(C)C)n5)c(F)c4)c23)C1	Condition not met
CC(=O)NC1CCN(c2n[nH]c3nccc(-c4ccc([C@@H](C)NC(=O)c5cc(C(C)(C)O)on5)cc4)c23)CC1	Condition not met
CN1CCCN([C@@H]2CCN(c3n[nH]c4nccc(-c5ccc(CNC(=O)c6nc(C(C)(C)C)no6)c(F)c5)c34)C2)C1=O	Condition not met
CC(C)(C)c1ncc(C(=O)NCc2ccc(-c3ccnc4[nH]nc(N[C@H]5CC[C@H](O)CC5)c34)cc2F)o1	Condition not met
CC(C)(C)c1nc(C(=O)NCc2ccc(-c3ccnc4[nH]nc(N[C@H]5CC[C@H](N)CC5)c34)cc2F)no1	Condition not met
C=CC(=O)N1CC(Nc2n[nH]c3nccc(-c4ccc(CNC(=O)c5ccc(C(C)(C)C)cc5)c(F)c4)c23)C1	Condition not met
C=CC(=O)N1CC[C@@H](Nc2n[nH]c3nccc(-c4ccc(CNC(=O)c5cc(-c6ccccc6)on5)c(F)c4)c23)C1	Condition met
C=CC(=O)N[C@@H]1CCN(c2n[nH]c3nccc(-c4ccc(CNC(=O)c5ccc(C(C)(C)O)cc5)c(F)c4)c23)C1	Condition met
C=CC(=O)N1CC[C@@H](Nc2n[nH]c3nccc(-c4ccc(NC(=O)Nc5noc(C(C)(C)C)n5)c(F)c4)c23)C1	Condition met
CCn1cc(C(=O)NCc2ccc(-c3ccnc4[nH]nc(N[C@H]5CC[C@H](O)CC5)c34)cc2F)cn1	Condition not met
NS(=O)(=O)c1cccc2c1C(=O)c1cccc(O)c1C2=O	Condition not met
